Target System: Catenin beta-1 (Homo sapiens)
Sequence (P35222 whole entry): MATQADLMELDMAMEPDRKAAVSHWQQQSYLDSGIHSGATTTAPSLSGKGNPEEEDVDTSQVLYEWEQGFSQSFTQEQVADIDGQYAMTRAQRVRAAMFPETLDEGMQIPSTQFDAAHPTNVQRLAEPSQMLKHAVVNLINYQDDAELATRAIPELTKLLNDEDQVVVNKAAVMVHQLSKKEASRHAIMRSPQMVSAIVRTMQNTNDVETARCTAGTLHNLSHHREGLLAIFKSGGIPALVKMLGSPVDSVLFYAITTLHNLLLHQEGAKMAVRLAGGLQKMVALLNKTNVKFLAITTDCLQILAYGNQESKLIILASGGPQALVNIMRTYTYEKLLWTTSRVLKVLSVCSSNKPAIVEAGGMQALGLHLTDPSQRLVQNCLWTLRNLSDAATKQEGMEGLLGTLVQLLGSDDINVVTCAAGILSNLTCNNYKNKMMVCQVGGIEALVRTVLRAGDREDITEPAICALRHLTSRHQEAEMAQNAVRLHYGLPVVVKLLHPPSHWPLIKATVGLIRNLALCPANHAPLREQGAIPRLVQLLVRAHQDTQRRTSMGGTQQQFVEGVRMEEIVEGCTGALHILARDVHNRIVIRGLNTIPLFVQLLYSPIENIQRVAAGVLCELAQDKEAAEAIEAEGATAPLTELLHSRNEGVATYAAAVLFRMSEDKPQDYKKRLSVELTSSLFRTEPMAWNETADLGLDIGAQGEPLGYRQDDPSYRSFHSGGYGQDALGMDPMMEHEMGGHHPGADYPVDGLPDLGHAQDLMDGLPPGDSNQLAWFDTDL
Measurement Description: Inhibition of His6-tagged human beta-Catenin (138 to 686 residues)/biotinylated human BCL9 (350 to 375 residues) protein-protein interaction assessed as inhibition constant by AlphaScreen competitive assay
Result Type: Ki

1. O=C(Nc1ccc(O[C@H]2CCNC2)c(-c2ccc(F)cc2)c1)c1ccc(O[C@H]2CCNC2)c(-c2ccc(F)c(F)c2)c1    2100 nM
